property label: melting point

| molecule | result |
| --- | --- |
| CCCC(CNc1cc(Cl)ccc1C(=O)O)C(=O)O (centres undefined) | 206 °C |
| CC(C)(C)OC(=O)N1CCC(C(=O)N2CCN(c3ccncn3)CC2)CC1 | 159 to 163 °C |

Which melting point value is on record for "Cc1cc(Nc2ccccc2C(=O)O)n(Cc2cccnc2)n1" ?
180 to 183 °C

Would you kindly share the measured melting point for "CCOC(=O)c1ccc(OCCCCCCCCc2cc(C)no2)cc1" ?
49 °C

Dear colleague, I am looking for the recorded melting point of the following molecule: "CC(=O)NC[C@H]1CN(c2ccc3c(c2)CCSCC3=O)C(=O)O1"
232 to 233 °C

Given "CCCc1n[nH]c(C(N)=O)c1[N+](=O)[O-]" , state its recorded melting point.
197 to 199 °C

melting point for "CCOC(=O)c1cc([N+](=O)[O-])c(Cl)c(S(N)(=O)=O)c1" ?
154 °C

Which melting point is listed for "CCc1cc(C=Cc2nc3ccccc3o2)c(=O)[nH]c1C" ?
262 to 264 °C

// query melting point value for entry "Cc1cccc(N2CCCCC2)c1NC(N)=S"
197 to 198 °C
